All figures here come from patent US20200024330A1.

Molecular target: HIV-1 MGRM-D-018 envelope glycoprotein (Env) on pseudovirus (HIV-1)
Test: cell-based or functional assay
measured_attribute: IC50, pseudovirus neutralization (mg/L)
One number for each entry, in mg/L.

Worked cases, answers included:
[
  {
    "binder": "PGT-123 monoclonal antibody (antibody, V domains shown) VH: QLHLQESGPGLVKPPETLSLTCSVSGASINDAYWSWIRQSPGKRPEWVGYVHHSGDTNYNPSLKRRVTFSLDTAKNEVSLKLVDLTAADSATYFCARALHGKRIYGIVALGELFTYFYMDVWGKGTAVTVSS VL: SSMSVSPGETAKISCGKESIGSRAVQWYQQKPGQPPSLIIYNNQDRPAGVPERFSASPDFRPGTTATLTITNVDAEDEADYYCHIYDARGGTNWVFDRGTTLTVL",
    "unit_label": "mg/L",
    "IC50, pseudovirus neutralization": 0.0047
  },
  {
    "binder": "PGT-125 monoclonal antibody (antibody, V domains shown) VH: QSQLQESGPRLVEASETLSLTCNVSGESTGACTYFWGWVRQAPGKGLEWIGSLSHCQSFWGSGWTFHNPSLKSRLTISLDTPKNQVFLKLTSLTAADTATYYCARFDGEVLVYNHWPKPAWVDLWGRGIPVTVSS VL: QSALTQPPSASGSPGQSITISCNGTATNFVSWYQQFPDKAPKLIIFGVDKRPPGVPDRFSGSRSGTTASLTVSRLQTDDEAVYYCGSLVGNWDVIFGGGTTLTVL",
    "unit_label": "mg/L",
    "IC50, pseudovirus neutralization": 0.0382
  },
  {
    "binder": "PGT-130 monoclonal antibody (antibody, V domains shown) VH: QVQLQESGPGLVKPAETLSLTCSVSGESINTGHYYWGWVRQVPGKGLEWIGHIHYTTAVLHNPSLKSRLTIKIYTLRNQITLRLSNVTAADTAVYHCVRSGGDILYYYEWQKPHWFSPWGPGIHVTVSS VL: QSALTQPPSASGSLGQSVTISCNGTSSDIGGWNFVSWYQQFPGRAPRLIIFEVNKRPSGVPGRFSGSKSGNSASLTVSGLQSDDEGQYFCSSLFGRWDVVFGGGTKLTVL",
    "unit_label": "mg/L",
    "IC50, pseudovirus neutralization": 0.0378
  },
  {
    "binder": "PGT-126 monoclonal antibody (antibody, V domains shown) VH: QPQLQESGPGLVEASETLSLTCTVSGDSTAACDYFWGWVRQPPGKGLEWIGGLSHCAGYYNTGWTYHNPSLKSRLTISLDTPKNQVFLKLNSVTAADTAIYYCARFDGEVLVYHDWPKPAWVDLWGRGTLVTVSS VL: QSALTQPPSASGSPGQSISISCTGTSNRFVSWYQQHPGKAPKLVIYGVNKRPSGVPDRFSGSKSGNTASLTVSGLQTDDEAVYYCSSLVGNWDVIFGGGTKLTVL",
    "unit_label": "mg/L",
    "IC50, pseudovirus neutralization": 0.0093
  }
]

We now examine a further binder.
What IC50, pseudovirus neutralization value was documented for this binder, PGT-135 monoclonal antibody (antibody, V domains shown) VH: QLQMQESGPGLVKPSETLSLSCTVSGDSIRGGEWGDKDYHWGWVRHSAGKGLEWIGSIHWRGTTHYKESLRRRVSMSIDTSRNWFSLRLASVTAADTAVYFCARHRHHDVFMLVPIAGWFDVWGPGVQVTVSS VL: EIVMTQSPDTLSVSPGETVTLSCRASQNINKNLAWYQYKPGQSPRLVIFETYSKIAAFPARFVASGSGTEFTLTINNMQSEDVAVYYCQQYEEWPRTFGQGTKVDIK ?
0.0433
